Hey, just so you know, these numbers are from BindingDB's records for doi:10.1016/j.bmcl.2008.02.001.

assay: Inhibition of VEGF-stimulated VEGFR2 autophosphorylation in HUVEC cells […] relative to control
Measure: IC50 (nM)
Give the value, in units of nM, as a plain number.

For the compound `CO/N=C(\C)c1ccc2c(c1)c1c3c(c4c(c1n2CC(C)C)CCc1nn(C)cc1-4)C(=O)NC3` , give its measured IC50 value.
4
